- assayText: MTT cytotoxicity assay, normal cell line HEK 293
- Type: cell-based
- recordedConditions: human, HEK 293 cells, HEK 293 normal cells, 48 h exposure
Give measured viability at 48 h, 10 µM for each item. Keep answers brief.
Answers are plain numbers, in %.

compound: Cc1ccc(C(=O)Cn2cc(CNC(=O)CC[C@@H](C)C3CCC4C5C(C[C@H](O)[C@@]43C)[C@@]3(C)CC[C@@H](O)CC3C[C@H]5O)nn2)cc1 (stereo partly drawn)
readoutUnits: %
viability at 48 h, 10 µM: 86
//
compound: Cc1ccc(C(=O)Cn2cc(COC(=O)CC[C@@H](C)C3CCC4C5CCC6C[C@H](O)CC[C@]6(C)C5C[C@H](O)[C@@]43C)nn2)cc1 (stereo partly drawn)
readoutUnits: %
viability at 48 h, 10 µM: 89.2

For each of the compounds below, note its viability at 48 h, 10 µM.
1. C[C@H](CCC(=O)NCc1cn(CC(=O)c2ccc(F)cc2)nn1)C1CCC2C3C(C[C@H](O)[C@@]21C)[C@@]1(C)CC[C@@H](O)CC1C[C@H]3O (stereo partly drawn)
2. C[C@H](CCC(=O)NCc1cn(CC(=O)c2ccc(F)cc2)nn1)C1CCC2C3CCC4C[C@H](O)CC[C@]4(C)C3C[C@H](O)[C@@]21C (stereo partly drawn)
3. C[C@H](CCC(=O)OCc1cn(CC(=O)c2ccccc2)nn1)C1CCC2C3CCC4C[C@H](O)CC[C@]4(C)C3C[C@H](O)[C@@]21C (stereo partly drawn)
4. C[C@H](CCC(=O)NCc1cn(CC(=O)c2ccc(Cl)cc2)nn1)C1CCC2C3C(C[C@H](O)[C@@]21C)[C@@]1(C)CC[C@@H](O)CC1C[C@H]3O (stereo partly drawn)

Out:
1: 97.5; 2: 81.6; 3: 88.9; 4: 92.7

---

- assayText: MTT cytotoxicity assay, normal cell line HEK 293
- Assay type: cell-based
- recordedConditions: human, HEK 293 cells, HEK 293 normal cells, 48 h exposure
Give measured viability at 48 h, 10 µM for each item. Keep answers brief.

compound: COc1ccc(C(=O)Cn2cc(CNC(=O)CC[C@@H](C)C3CCC4C5C(C[C@H](O)[C@@]43C)[C@@]3(C)CC[C@@H](O)CC3C[C@H]5O)nn2)cc1 (stereo partly drawn) [6cc]
recordedMetric: viability at 48 h, 10 µM
valueObserved: 96.8%

For each of the compounds below, note its viability at 48 h, 10 µM.
1. COc1ccc(C(=O)Cn2cc(COC(=O)CC[C@@H](C)C3CCC4C5CCC6C[C@H](O)CC[C@]6(C)C5C[C@H](O)[C@@]43C)nn2)cc1 (stereo partly drawn) [6bc]
2. C[C@H](CCC(=O)NCc1cn(CC(=O)c2ccccc2)nn1)C1CCC2C3CCC4C[C@H](O)CC[C@]4(C)C3C[C@H](O)[C@@]21C (stereo partly drawn) [6da]

Out:
["90.8%", "97.9%"]

---

Give measured melting point for each item. Keep answers brief.

compound: C[C@H](CCC(=O)OCc1cn(CC(=O)c2ccccc2)nn1)C1CCC2C3CCC4C[C@H](O)CC[C@]4(C)C3C[C@H](O)[C@@]21C (stereo partly shown) [6ba]
melting point: 143 to 144 °C

compound: COc1ccc(C(=O)Cn2cc(COC(=O)CC[C@@H](C)C3CCC4C5CCC6C[C@H](O)CC[C@]6(C)C5C[C@H](O)[C@@]43C)nn2)cc1 (stereo partly shown) [6bc]
melting point: 144 to 145 °C

compound: C[C@H](CCC(=O)OCc1cn(CC(=O)c2ccc(Cl)cc2)nn1)C1CCC2C3C(C[C@H](O)[C@@]21C)[C@@]1(C)CC[C@@H](O)CC1C[C@H]3O (stereo partly shown) [6ae]
melting point: 153 to 154 °C

In: I'd like to know its melting point. The compound in question is C[C@H](CCC(=O)NCc1cn(CC(=O)c2ccc(Br)cc2)nn1)C1CCC2C3C(C[C@H](O)[C@@]21C)[C@@]1(C)CC[C@@H](O)CC1C[C@H]3O (stereo partly shown) [6cf]
Out: 144 to 145 °C

---

Give measured viability at 48 h, 10 µM for each item. Keep answers brief.
- assayText: MTT cytotoxicity assay, normal cell line HEK 293
- Format: cell-based
- recordedConditions: human, HEK 293 cells, HEK 293 normal cells, 48 h exposure
One number for each entry, in %.

For each of the molecules below, note its viability at 48 h, 10 µM.
1. C[C@H](CCC(=O)OCc1cn(CC(=O)c2ccc(F)cc2)nn1)C1CCC2C3C(C[C@H](O)[C@@]21C)[C@@]1(C)CC[C@@H](O)CC1C[C@H]3O (stereo partly drawn)
2. C[C@H](CCC(=O)OCc1cn(CC(=O)c2ccc(Cl)cc2)nn1)C1CCC2C3C(C[C@H](O)[C@@]21C)[C@@]1(C)CC[C@@H](O)CC1C[C@H]3O (stereo partly drawn)

Out:
1. 86.8
2. 96.2

---

- assayText: MTT cytotoxicity assay, normal cell line HEK 293
- Assay type: cell-based
- recordedConditions: human, HEK 293 cells, HEK 293 normal cells, 48 h exposure
Give measured viability at 48 h, 10 µM for each item. Keep answers brief.

compound: C[C@H](CCC(=O)NCc1cn(CC(=O)c2ccccc2)nn1)C1CCC2C3C(C[C@H](O)[C@@]21C)[C@@]1(C)CC[C@@H](O)CC1C[C@H]3O (stereo partly drawn)
valueObserved: 90.1%
--
compound: Cc1ccc(C(=O)Cn2cc(COC(=O)CC[C@@H](C)C3CCC4C5C(C[C@H](O)[C@@]43C)[C@@]3(C)CC[C@@H](O)CC3C[C@H]5O)nn2)cc1 (stereo partly drawn)
valueObserved: 87.6%
--
compound: C[C@H](CCC(=O)OCc1cn(CC(=O)c2ccc(Br)cc2)nn1)C1CCC2C3C(C[C@H](O)[C@@]21C)[C@@]1(C)CC[C@@H](O)CC1C[C@H]3O (stereo partly drawn)
valueObserved: > 86%

For each of the compounds below, note its viability at 48 h, 10 µM.
1. C[C@H](CCC(=O)OCc1cn(CC(=O)c2ccc(Cl)cc2)nn1)C1CCC2C3CCC4C[C@H](O)CC[C@]4(C)C3C[C@H](O)[C@@]21C (stereo partly drawn)
2. C[C@H](CCC(=O)OCc1cn(CC(=O)c2ccc(F)cc2)nn1)C1CCC2C3CCC4C[C@H](O)CC[C@]4(C)C3C[C@H](O)[C@@]21C (stereo partly drawn)
3. Cc1ccc(C(=O)Cn2cc(CNC(=O)CC[C@@H](C)C3CCC4C5CCC6C[C@H](O)CC[C@]6(C)C5C[C@H](O)[C@@]43C)nn2)cc1 (stereo partly drawn)

Out:
88.4%
89.4%
89.4%

---

- assayText: Pharmacokinetic study in Wistar rats, i.v. bolus
- Assay type: in vivo
- recordedConditions: male, Wistar, iv; rat plasma; 10 mg/kg i.v. bolus; conversion of 1752.69 ng/mL; read-out: initial concentration converted to molar
recordedMetric: C0

In: I'd like to know its C0. The compound in question is C[C@H](CCC(=O)NCc1cn(CC(=O)c2ccc(Br)cc2)nn1)C1CCC2C3C(C[C@H](O)[C@@]21C)[C@@]1(C)CC[C@@H](O)CC1C[C@H]3O (stereo partly shown)
Out: ~2560 nM

---

Give measured viability at 48 h, 10 µM for each item. Keep answers brief.
- assayText: MTT cytotoxicity assay, normal cell line HEK 293
- Type: cell-based
- recordedConditions: human, HEK 293 cells, HEK 293 normal cells, 48 h exposure
One number for each entry, in %.

// known answers, use as guide
molecule: C[C@H](CCC(=O)OCc1cn(CC(=O)c2ccc(Br)cc2)nn1)C1CCC2C3CCC4C[C@H](O)CC[C@]4(C)C3C[C@H](O)[C@@]21C (stereo partly drawn)
readoutUnits: %
viability at 48 h, 10 µM: 86.8
--
molecule: C[C@H](CCC(=O)NCc1cn(CC(=O)c2ccc(Cl)cc2)nn1)C1CCC2C3CCC4C[C@H](O)CC[C@]4(C)C3C[C@H](O)[C@@]21C (stereo partly drawn)
readoutUnits: %
viability at 48 h, 10 µM: 90.5

In: I'd like to know its viability at 48 h, 10 µM. The molecule in question is C[C@H](CCC(=O)NCc1cn(CC(=O)c2ccc(Br)cc2)nn1)C1CCC2C3CCC4C[C@H](O)CC[C@]4(C)C3C[C@H](O)[C@@]21C (stereo partly drawn)
Out: 93.5

These entries and their values trace back to paper PMC8510344.
